# system name: T1, CD27 expressed on the cell surface (HT1080_CD27 cells) (human, UniProt P26842 20-260)
# T1 construct: whole, on cells; also called K562_CD27
# T1 sequence (looked up): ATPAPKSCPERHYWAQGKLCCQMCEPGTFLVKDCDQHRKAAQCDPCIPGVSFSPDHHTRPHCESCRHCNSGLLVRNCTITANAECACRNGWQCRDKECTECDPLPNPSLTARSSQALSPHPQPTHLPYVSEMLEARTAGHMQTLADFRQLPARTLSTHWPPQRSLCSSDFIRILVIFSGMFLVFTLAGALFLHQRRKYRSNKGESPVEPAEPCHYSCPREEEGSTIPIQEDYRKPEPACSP
# procedure summary: cellular binding assay, HT1080_CD27 cells; note: test concentration or dose not given here
property measured: Cellular binding assay [RFU] (RFU)
Please give a number only; it is taken to be in RFU.

Can you share its Cellular binding assay [RFU]? I mean this binder: P018.S.03.A.C04 (antibody, V domains shown, V regions on human Ig constant parts; also called AB27_45) VH: QSVEESGGRLVTPGTPLTLTCTVSGVDLSRYAMSWVRQAPGEGLEWIGTIWYSGTTYYASWAKGRFTISKTSSTTVDLKMTSLTAADTATYFCARDPLYVGGNSGSDLWGPGTLVTVSS VL: DVVMTQTPASVSAAVGGTVTINCQASQSIGSSLAWYQQKPGQRPKLLIYYASTLASGVPSRFSGSGSGTEFTLTISDLESADAATYYCQSNYGAASSSYGAFGGGTEVVVK
337

Reference source: patent US20210253725A1
